STUDY_SYSTEM: HLA-A*1101 (Homo sapiens, UniProt P04439, A114D/D185E/E176A/F33Y/L180Q/S129P/T187R)
EXPERIMENTAL_CONDITIONS: Table XXIII, HLA-A3 supermotif-bearing peptides
pIC50: −log10 of the molar value.
RECORDED_ENDPOINT: pIC50

INSERT INTO results (molecule, censoring_operator, quantitative_readout) VALUES
  ('CC[C@H](C)[C@H](N)C(=O)N[C@H](C(=O)N[C@@H](CCCCN)C(=O)NCC(=O)NCC(=O)N[C@H](C(=O)N[C@@H](CC(C)C)C(=O)N[C@H](C(=O)N[C@@H](CCC(N)=O)C(=O)N[C@@H](CCCNC(=N)N)C(=O)O)[C@@H](C)CC)C(C)C)C(C)C [Her2/neu.148.V2]', '=', 5.12),
  ('CC(C)[C@H](NC(=O)[C@@H](N)[C@@H](C)O)C(=O)N[C@@H](CS)C(=O)N[C@@H](C)C(=O)NCC(=O)NCC(=O)N[C@@H](CS)C(=O)N[C@@H](C)C(=O)N[C@@H](CCCNC(=N)N)C(=O)O [Her2/neu.218]', '=', 6.58),
  ('CC[C@H](C)[C@H](N)C(=O)N[C@H](C(=O)N[C@@H](Cc1c[nH]c2ccccc12)C(=O)N[C@@H](CCCCN)C(=O)N[C@@H](CC(=O)O)C(=O)N[C@H](C(=O)N[C@@H](Cc1ccccc1)C(=O)N[C@@H](Cc1c[nH]cn1)C(=O)N[C@@H](CCCNC(=N)N)C(=O)O)[C@@H](C)CC)C(C)C [Her2/neu.167.V2R9]', '=', 6.54),
  ('CC[C@H](C)[C@H](N)C(=O)N[C@@H](CC(C)C)C(=O)N[C@@H](CCCCN)C(=O)NCC(=O)NCC(=O)N[C@H](C(=O)N[C@@H](CC(C)C)C(=O)N[C@H](C(=O)N[C@@H](CCC(N)=O)C(=O)N[C@@H](CCCNC(=N)N)C(=O)O)[C@@H](C)CC)C(C)C [Her2/neu.148]', '<', 5.00),
  ('CC[C@H](C)[C@H](NC(=O)[C@H](CCC(=O)O)NC(=O)[C@@H](NC(=O)[C@H](CC(C)C)NC(=O)[C@H](CO)NC(=O)[C@H](CCCNC(=N)N)NC(=O)[C@H](CC(C)C)NC(=O)[C@@H](N)CCC(N)=O)[C@@H](C)O)C(=O)N[C@@H](CC(C)C)C(=O)N[C@@H](CCCCN)C(=O)O [Her2/neu.141]', '=', 6.34),
  ('CC(C)C[C@H](NC(=O)[C@H](Cc1ccccc1)NC(=O)[C@H](CCC(N)=O)NC(=O)[C@H](CO)NC(=O)[C@H](CS)NC(=O)[C@H](CC(N)=O)NC(=O)[C@@H](NC(=O)[C@@H](N)CS)C(C)C)C(=O)N[C@@H](CCCNC(=N)N)C(=O)O [Her2/neu.528]', '=', 6.71),
  ('CC[C@H](C)[C@H](N)C(=O)N[C@@H](CO)C(=O)N[C@@H](Cc1c[nH]c2ccccc12)C(=O)N[C@@H](CC(C)C)C(=O)NCC(=O)N[C@@H](CC(C)C)C(=O)N[C@@H](CCCNC(=N)N)C(=O)N[C@@H](CO)C(=O)N[C@@H](CC(C)C)C(=O)N[C@@H](CCCNC(=N)N)C(=O)O [Her2/neu.450]', '=', 5.65);

Where do the numbers come from? From patent US20040121946A9.
